Tested on: IRAK4
Test context: concentration: 1 μM, replicates: in singlicate; n = 1;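 further: KINOMEscan kinase panel screen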
For each entry below, report its %Inh value.
Please give a number only; it is taken to be in %.

Q: Look at this compound and give its reported %Inh. COc1ccc(Nc2nccc(N3CCC(NC(=O)Nc4cccc(OC)c4)C3)n2)cc1 (centres unmarked) [GSK1379742]
Result: 6

Q: How about COc1cc(Nc2ncc3c(C)nc(-c4cc5ccccc5[nH]4)n3n2)cc(OC)c1OC [GW869516] ?
Result: 0

Q: Same read-out for C[C@@H](Oc1cc(-n2cnc3cc(-c4ccnc(NCCS(C)(=O)=O)c4)ccc32)sc1C(N)=O)c1ccccc1Cl [GSK907232] ?
Result: 13

Q: Check Cn1cc(-c2ccc3c(c2)CCN3C(=O)Cc2cccc(F)c2)c2c(N)ncnc21 [GSK2603358] too.
Result: 22

Q: Try Cn1cc(-c2ccc3c(c2)CCN3C(=O)Cc2cccc(Cl)c2)c2c(N)ncnc21 [GSK2606590] next.
Result: 0

Q: Now give it for Oc1cc(Nc2ccnc3cc(I)ccc23)ccc1F [GW552771] too.
Result: 11

Q: Record: COC(=O)Nc1nc2ccc(Oc3ccc(NC(=O)Nc4cc(C(F)(F)F)ccc4F)cc3)cc2n1C.Cl [GW692089]
Result: 0

Q: COc1cc(Nc2nccc(-c3c(-c4cccc(NC(=O)c5c(F)cccc5F)c4)nn4ccccc34)n2)cc(OC)c1OC [GSK323521] ?
Result: 0

Q: Can you check O=C(NC1CCN(c2ccnc(Nc3ccc(F)cc3)n2)C1)c1cc2ccccc2s1 (centres unmarked) [GSK1379716] next?
Result: 17

Q: Now consider Nc1ncc(-c2ccc3nccc(-c4ccncc4)c3c2)cc1S(=O)(=O)N1CCOCC1 [GSK1627798] .
Result: 16

Q: COCCOCCOc1cc2ncc3c4ccc(C#N)cc4[nH]c3c2cc1OC , same question.
Result: 99.9

Q: Another compound to check: C[C@@H]1CC[C@@H](C(=O)Nc2ccccc2)CN1c1cc(-c2ccc3c(N)n[nH]c3c2)nc(N)n1 [GSK2286062]
Result: 0

Q: Same question, Cc1ccc(F)c(C(=O)Nc2cccc(-c3nn4ccccc4c3-c3ccnc(Nc4cccc(F)c4)n3)c2)c1F [GSK361061] this time
Result: 3

Q: What would you report for Cc1cccc(Nc2nc(N[C@H]3CCNC3)ncc2C(N)=O)c1.Cl [GSK2197149] ?
Result: 76

---

Consider the following molecules; for each one, report its %Inh.
System: CSNK1G1
Test context: concentration: 1 μM, replicates: in singlicate; n = 1
Give just the numeric value; % need not be written.

Q: # input molecule: COc1cc2c(cc1OCCN1CCNCC1)ncc1c3ccc(C#N)cc3[nH]c21 ; wanted: its %Inh
Result: 0

Q: Further, for O=C(Nc1cccc(-c2nn3ccccc3c2-c2ccnc(Nc3cccc(F)c3)n2)c1)c1c(F)ccc(F)c1Cl ?
Result: 0

Q: Next up: Cc1ccc(C(=O)N2CC[C@@H](O)C2)cc1-n1c(C)cc(OCc2ccc(F)cc2F)c(Br)c1=O
Result: 0

Q: Similarly, Oc1cc(Nc2ccnc3cc(I)ccc23)ccc1F ?
Result: 0

Q: Cool, now COc1cccc(NC(=O)NC2CCN(c3ccnc(Nc4cc(OC)c(OC)c(OC)c4)n3)C2)c1 (stereo not drawn)
Result: 0

Q: Note, next up: Nc1ncc(-c2cccnc2)c2scc(-c3ccc4c(c3)CCN4C(=O)Cc3ccccc3)c12
Result: 32

Q: Ok, now COc1ccc(Nc2nccc(N3CCC(NC(=O)Nc4cccc(OC)c4)C3)n2)cc1 (stereo not drawn)
Result: 13

Q: Next: COc1ccc(CNC(=O)NC2CCN(c3ccnc(Nc4ccc(F)cc4)n3)CC2)cc1
Result: 0

Q: Here is the next molecule: Cc1ccc(C)c(NC(=O)NC2CCN(c3ccnc(Nc4ccc(F)cc4)n3)C2)c1 (stereo not drawn)
Result: 0

Q: What do we get for CC(C)c1nc(-c2cccc(NS(=O)(=O)c3c(F)cccc3F)c2F)c(-c2ccnc(Nc3ccc(N4CCOCC4)nc3)n2)s1 ?
Result: 21

Q: Also COc1cc(Nc2nccc(-c3c(-c4cccc(NC(=O)c5c(F)cccc5F)c4)nn4ccccc34)n2)cc(OC)c1OC ?
Result: 20

Q: Now give it for COC(=O)Nc1nc2cc(Oc3ccc(NC(=O)Nc4cc(C(F)(F)F)ccc4F)cn3)ccc2[nH]1.Cl.Cl too.
Result: 10

Q: Same read-out for NCCCC(NC(=O)c1cc(Br)c(-c2ccnc3[nH]ccc23)s1)c1ccccc1.O=C(O)C(F)(F)F.O=C(O)C(F)(F)F (stereo not drawn) ?
Result: 57

Q: // same read-out, input: O=C(NC1CCN(c2ccnc(Nc3ccc(F)cc3)n2)C1)c1cc2ccccc2s1 (stereo not drawn)
Result: 20

Q: Try COc1cccc(C2=C(Nc3ccc(Cl)c(C(=O)O)c3)C(=O)NC2=O)c1 next.
Result: 11

Q: Please answer likewise for COc1cc(Nc2ncc3c(C)nc(-c4cc5ccccc5[nH]4)n3n2)cc(OC)c1OC
Result: 21

Q: Cl.Cl.NCC(NCc1ccc(-c2ccnc3[nH]ccc23)s1)c1ccccc1 (stereo not drawn) ?
Result: 0

Q: What would you report for CCCCc1nn2ncccc2c1-c1ccnc(Nc2ccc(N3CCN(C)CC3)cc2)n1 ?
Result: 0

Q: Can you handle Cc1cccc(Nc2nc(N[C@H]3CCNC3)ncc2C(N)=O)c1.Cl next?
Result: 14

Q: Queued: Cl.NC(=O)c1cccc(Nc2nccc(Nc3ccc(Oc4c(Cl)cccc4Cl)c(Cl)c3)n2)c1
Result: 0

Q: Subsequent entry: Cc1ccc(F)c(C(=O)Nc2cccc(-c3nn4ccccc4c3-c3ccnc(Nc4cccc(F)c4)n3)c2)c1F
Result: 10

Q: Next: COCCOCCOc1cc2ncc3c4ccc(C#N)cc4[nH]c3c2cc1OC
Result: 0

Q: Also Fc1ccc(-c2ncn(C3CCNCC3)c2-c2ccnc(Oc3ccc(-c4ccccc4)cc3)n2)cc1 , if possible.
Result: 30

Q: Please answer likewise for c1ccc(-c2cnc3nccnn23)cc1
Result: 0

Q: What would you report for C[C@@H](Oc1cc(-n2cnc3cc(-c4ccnc(NCCS(C)(=O)=O)c4)ccc32)sc1C(N)=O)c1ccccc1Cl ?
Result: 13

Q: Check Clc1ccc(-c2nn3ncccc3c2-c2ccnc(Nc3ccc4c(c3)OCCO4)n2)cc1 too.
Result: 0

Q: Queued: O=C(Nc1cccc(-c2nn3ncccc3c2-c2ccnc(Nc3ccccc3)n2)c1)c1c(F)cccc1F
Result: 19

---

System: MLK2
Test context: concentration: 1 μM, replicates: in singlicate; n = 1
Quantity: %Inh (%)
A number alone suffices; assume %.

Q: Please report the recorded %Inh for COc1cc(Nc2ncc3c(C)nc(-c4cc5ccccc5[nH]4)n3n2)cc(OC)c1OC .
Result: 89

Q: // next record FC(F)(F)c1ccc(/C=C/c2cncnc2Nc2ccc3[nH]c(Cc4ccccc4)nc3c2)cc1
Result: 11

Q: Let us now turn to COCCOCCOc1cc2ncc3c4ccc(C#N)cc4[nH]c3c2cc1OC
Result: 0

---

Tested on: JNK3
Construct: gene MAPK10
Test context: concentration: 1 μM, replicates: in singlicate; n = 1
Quantity: %Inh (%)
Field format: number, assumed %, no unit text.

Q: Please tell me: %Inh of CN1CCN(Cc2cccc(-c3ccc4c(Nc5ccc(Oc6ccccc6)cc5)ccnc4c3)c2)CC1 , system JNK3?
Result: 0

Q: Next molecule: CN(c1ccc(NC(=O)Nc2cc(C(F)(F)F)ccc2F)cc1)c1ccnc(Nc2ccc(S(N)(=O)=O)cc2)n1
Result: 0

Q: Can you handle CCn1c(-c2nonc2N)nc2c(C#CC(C)(C)O)nc(OC[C@H](N)c3ccccc3)cc21 next?
Result: 0

Q: What about this molecule? O=C(Nc1cccc(-c2nn3ccccc3c2-c2ccnc(Nc3cccc(F)c3)n2)c1)c1c(F)ccc(F)c1Cl
Result: 19

Q: Can you handle COC(=O)Nc1nc2cc(Oc3ccc(NC(=O)Nc4cc(C(F)(F)F)ccc4F)cn3)ccc2[nH]1.Cl.Cl next?
Result: 0

Q: Now consider Cc1ccc(S(=O)(=O)Nc2ccc(Nc3nccc(Nc4cccc5[nH]ncc45)n3)cc2)cc1 and answer again.
Result: 29

Q: // repeat for COC(=O)Nc1nc2ccc(Oc3ccc(NC(=O)Nc4cc(C(F)(F)F)ccc4F)cc3)cc2n1C.Cl and report
Result: 0

Q: Again, but for COCCOCCOc1cc2ncc3c4ccc(C#N)cc4[nH]c3c2cc1OC
Result: 0

---

Test system: BTK
Test context: concentration: 1 μM, replicates: in singlicate; n = 1
Exercise: state measured %Inh for each of the molecules provided.
Give the number; % is assumed, so skip it.

Q: Need %Inh of Cc1occc1-c1ncc(OC[C@@H](N)Cc2c[nH]c3ccccc23)cc1-c1ccc2[nH]nc(C)c2c1.O=C(O)C(F)(F)F [GSK682037] , thanks.
Result: 0

Q: Repeat for the following molecule: O=C(Nc1cccc(-c2nn3ccccc3c2-c2ccnc(Nc3cccc(C(F)(F)F)c3)n2)c1)c1c(F)cccc1F [GSK292658]
Result: 50

Q: Next: CN1CCN(Cc2cccc(-c3ccc4c(Nc5ccc(Oc6ccccc6)cc5)ccnc4c3)c2)CC1 [GW578342]
Result: 90.8

Q: Again, but for Nc1n[nH]c2cnc(-c3ccccc3)cc12 [SB-642124]
Result: 0

Q: Another molecule: Cn1cc(-c2ccc3c(c2)CCN3C(=O)Cc2cccc(F)c2)c2c(N)ncnc21 [GSK2603358]
Result: 0

Q: Also COc1cccc(C(=O)Nc2cccc(Oc3ccc4nc(NC(=O)C5CC5)cn4n3)c2)c1 ?
Result: 9

Q: Would you kindly repeat that for Clc1ccc(-c2nn3ncccc3c2-c2ccnc(Nc3ccc4c(c3)OCCO4)n2)cc1 [GW829116] ?
Result: 0

Q: What do we get for CC(=O)Nc1nc2cnc(Nc3cc(NC(=O)c4cccc(C5(C#N)CC5)c4Cl)ccc3C)nc2s1 ?
Result: 0

Q: Please answer likewise for CN(C)S(=O)(=O)c1cc(-c2ccc3nccc(-c4cccc(S(N)(=O)=O)c4)c3c2)cnc1N [GSK1669921]
Result: 0

Q: Item: O=C(O)C(F)(F)F.O=C(O)C(F)(F)F.O=c1[nH]ccc2nc(N[C@@H]3CCCNC3)nc(Nc3ccc(S(=O)(=O)N4CCOCC4)cc3)c12 [GSK2177277]
Result: 90.7

Q: Next up: O=C(Nc1cccc(-c2nn3ncccc3c2-c2ccnc(Nc3ccccc3)n2)c1)c1c(F)cccc1F [GSK198271]
Result: 99.4

Q: Then what about the molecule CSc1cccc2c(-c3ccncn3)c(-c3ccc(F)cc3)nn12 [GW514786] ?
Result: 11

Q: Now consider c1ccc(Oc2ccc(Nc3ccnc4cc(-c5ccc(CNCCN6CCOCC6)o5)ccc34)cc2)nc1 [GW567145] .
Result: 86

Q: Try this molecule next: CN(c1ccc(NC(=O)Nc2cc(C(F)(F)F)ccc2F)cc1)c1ccnc(Nc2ccc(S(N)(=O)=O)cc2)n1 [GW809893]
Result: 25

Q: Field entry: Cl.c1ccc(-c2ccc3c(Nc4ccc5[nH]ccc5c4)ccnc3c2)nc1 [GW440138]
Result: 0

Q: Record: CN(C)Cc1ccc(-c2ccc3c(Nc4ccc(Oc5ccccn5)cc4)ccnc3c2)o1 [GW567148]
Result: 74
